All figures here come from patent US8481750B2.

target: LFA-1 binding to ICAM-1 (Homo sapiens, UniProt P05107+P20701); assay: Inhibition of LFA-1 binding to ICAM-1 (LFA-1/Biotin-sICAM-1 AlphaScreen molecular assay); settings: highest compound concentration 1 μM in 1% DMSO, 37° C., 90 minutes
Sequence (P20701 26-1170): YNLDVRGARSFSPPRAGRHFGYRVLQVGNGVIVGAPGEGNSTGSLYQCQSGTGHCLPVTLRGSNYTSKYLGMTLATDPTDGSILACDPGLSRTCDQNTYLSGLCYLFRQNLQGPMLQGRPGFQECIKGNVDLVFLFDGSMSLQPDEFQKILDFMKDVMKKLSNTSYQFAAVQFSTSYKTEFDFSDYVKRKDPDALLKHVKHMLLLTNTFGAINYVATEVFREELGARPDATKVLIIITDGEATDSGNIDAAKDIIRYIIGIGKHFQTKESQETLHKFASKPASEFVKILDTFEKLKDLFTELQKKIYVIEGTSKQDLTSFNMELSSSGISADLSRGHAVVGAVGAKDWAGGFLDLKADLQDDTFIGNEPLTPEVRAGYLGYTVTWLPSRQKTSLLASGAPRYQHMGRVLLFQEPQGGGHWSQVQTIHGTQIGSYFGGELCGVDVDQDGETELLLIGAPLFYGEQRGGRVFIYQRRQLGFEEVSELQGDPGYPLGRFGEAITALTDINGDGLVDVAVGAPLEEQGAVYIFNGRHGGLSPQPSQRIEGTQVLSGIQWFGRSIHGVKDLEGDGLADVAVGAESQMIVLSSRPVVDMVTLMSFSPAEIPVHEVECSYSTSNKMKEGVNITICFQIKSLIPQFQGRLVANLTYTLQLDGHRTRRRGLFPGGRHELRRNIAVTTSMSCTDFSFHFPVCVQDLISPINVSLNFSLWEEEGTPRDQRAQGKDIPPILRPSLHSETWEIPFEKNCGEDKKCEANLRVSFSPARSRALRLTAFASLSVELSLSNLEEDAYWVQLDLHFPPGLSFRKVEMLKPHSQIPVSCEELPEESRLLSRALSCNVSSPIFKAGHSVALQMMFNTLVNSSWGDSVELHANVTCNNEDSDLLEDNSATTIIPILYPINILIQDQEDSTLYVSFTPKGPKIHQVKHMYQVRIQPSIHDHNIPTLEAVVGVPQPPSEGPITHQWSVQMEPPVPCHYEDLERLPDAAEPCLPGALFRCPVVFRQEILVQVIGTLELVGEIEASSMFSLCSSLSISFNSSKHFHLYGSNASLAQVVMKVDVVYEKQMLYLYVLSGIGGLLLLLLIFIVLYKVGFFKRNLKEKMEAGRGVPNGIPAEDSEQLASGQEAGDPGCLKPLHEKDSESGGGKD
Sequence (P05107 23-769): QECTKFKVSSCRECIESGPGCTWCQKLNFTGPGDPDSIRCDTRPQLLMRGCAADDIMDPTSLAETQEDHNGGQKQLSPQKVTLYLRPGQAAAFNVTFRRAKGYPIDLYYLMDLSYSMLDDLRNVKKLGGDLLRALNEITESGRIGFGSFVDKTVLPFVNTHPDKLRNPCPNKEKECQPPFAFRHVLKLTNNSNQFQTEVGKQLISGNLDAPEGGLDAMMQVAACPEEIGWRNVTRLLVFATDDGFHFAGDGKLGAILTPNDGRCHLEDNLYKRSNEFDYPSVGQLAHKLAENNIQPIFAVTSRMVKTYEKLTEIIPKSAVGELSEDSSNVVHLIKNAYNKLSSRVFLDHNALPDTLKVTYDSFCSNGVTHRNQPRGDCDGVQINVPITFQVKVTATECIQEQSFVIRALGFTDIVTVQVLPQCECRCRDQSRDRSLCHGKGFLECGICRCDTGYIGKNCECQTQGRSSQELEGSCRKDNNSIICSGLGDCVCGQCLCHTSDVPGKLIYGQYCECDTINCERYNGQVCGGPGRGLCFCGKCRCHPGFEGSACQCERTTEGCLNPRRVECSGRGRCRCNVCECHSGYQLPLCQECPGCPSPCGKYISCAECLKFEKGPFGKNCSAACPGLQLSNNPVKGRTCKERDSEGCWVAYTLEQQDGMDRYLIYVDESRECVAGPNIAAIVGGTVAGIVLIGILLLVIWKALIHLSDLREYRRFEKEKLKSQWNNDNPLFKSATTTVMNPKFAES
Hi! Could you tag entries with IC50 below 0.8 nM as true (1), and those at or above as false (0)? Much appreciated.

Input line: # strict comparison: is reported IC50 < 0.8 nM? input = C[C@@]1(Cc2ccc(C#N)cc2)C(=O)N(c2cc(Cl)cc(Cl)c2)c2ncc(C(=O)NC3(C(=O)NC4(c5ccc(C(=O)NCc6ccccc6)cn5)CC4)CC3)n21
Output line: false (0)

Input line: // query: C[C@@]1(Cc2ccc(C#N)cc2)C(=O)N(c2cc(Cl)cc(Cl)c2)c2ncc(C(=O)NC3(C(=O)NC4(c5cc(C(=O)N6CCOCC6)ccn5)CC4)CC3)n21
Output line: true (1)

Input line: Now consider C[C@@]1(Cc2ccc(C#N)cc2)C(=O)N(c2cc(Cl)cc(Cl)c2)c2ncc(C(=O)NC3(C(=O)NC4(c5ccc(C(=O)NC(CO)CO)cn5)CC4)CC3)n21 and answer again.
Output line: true (1)

Input line: How about C[C@@]1(Cc2ccc(C#N)cc2)C(=O)N(c2cc(Cl)cc(Cl)c2)c2ncc(C(=O)NC3(C(=O)NC4(c5ccc(C(=O)N6CCCCC6)cn5)CC4)CC3)n21 ?
Output line: false (0)

Input line: Also need C[C@@]1(Cc2ccc(C#N)cc2)C(=O)N(c2cc(Cl)cc(Cl)c2)c2ncc(C(=O)NC3(C(=O)NC4(c5cc(C(=O)NCCO)ccn5)CC4)CC3)n21 , thanks.
Output line: false (0)

Input line: Then CN(CCO)C(=O)c1ccnc(C2(NC(=O)C3(NC(=O)c4cnc5n4[C@](C)(Cc4ccc(C#N)cc4)C(=O)N5c4cc(Cl)cc(Cl)c4)CC3)CC2)c1 ?
Output line: true (1)

Input line: # iterate: C[C@@]1(Cc2ccc(C#N)cc2)C(=O)N(c2cc(Cl)cc(Cl)c2)c2ncc(C(=O)NC3(C(=O)NC4(c5ccc(C(=O)N6CC[C@H](O)C6)cn5)CC4)CC3)n21
Output line: true (1)

Input line: How about this molecule: C[C@@]1(Cc2ccc(C#N)cc2)C(=O)N(c2cc(Cl)cc(Cl)c2)c2ncc(C(=O)NC3(C(=O)NC4(c5cc(C(=O)NCc6ccncc6)ccn5)CC4)CC3)n21
Output line: true (1)

Input line: // next record C[C@@]1(Cc2ccc(C#N)cc2)C(=O)N(c2cc(Cl)cc(Cl)c2)c2ncc(C(=O)NC3(C(=O)NC4(c5cc(C(=O)NCc6ccccc6)ccn5)CC4)CC3)n21
Output line: false (0)

Input line: Now the molecule COCCNC(=O)c1ccc(C2(NC(=O)C3(NC(=O)c4cnc5n4[C@](C)(Cc4ccc(C#N)cc4)C(=O)N5c4cc(Cl)cc(Cl)c4)CC3)CC2)nc1
Output line: true (1)
